systemUnderTest: Protein cereblon/Serine/threonine-protein kinase PLK4 (Homo sapiens, UniProt O00444+Q96SW2)
Sequence (O00444 whole entry, looked up): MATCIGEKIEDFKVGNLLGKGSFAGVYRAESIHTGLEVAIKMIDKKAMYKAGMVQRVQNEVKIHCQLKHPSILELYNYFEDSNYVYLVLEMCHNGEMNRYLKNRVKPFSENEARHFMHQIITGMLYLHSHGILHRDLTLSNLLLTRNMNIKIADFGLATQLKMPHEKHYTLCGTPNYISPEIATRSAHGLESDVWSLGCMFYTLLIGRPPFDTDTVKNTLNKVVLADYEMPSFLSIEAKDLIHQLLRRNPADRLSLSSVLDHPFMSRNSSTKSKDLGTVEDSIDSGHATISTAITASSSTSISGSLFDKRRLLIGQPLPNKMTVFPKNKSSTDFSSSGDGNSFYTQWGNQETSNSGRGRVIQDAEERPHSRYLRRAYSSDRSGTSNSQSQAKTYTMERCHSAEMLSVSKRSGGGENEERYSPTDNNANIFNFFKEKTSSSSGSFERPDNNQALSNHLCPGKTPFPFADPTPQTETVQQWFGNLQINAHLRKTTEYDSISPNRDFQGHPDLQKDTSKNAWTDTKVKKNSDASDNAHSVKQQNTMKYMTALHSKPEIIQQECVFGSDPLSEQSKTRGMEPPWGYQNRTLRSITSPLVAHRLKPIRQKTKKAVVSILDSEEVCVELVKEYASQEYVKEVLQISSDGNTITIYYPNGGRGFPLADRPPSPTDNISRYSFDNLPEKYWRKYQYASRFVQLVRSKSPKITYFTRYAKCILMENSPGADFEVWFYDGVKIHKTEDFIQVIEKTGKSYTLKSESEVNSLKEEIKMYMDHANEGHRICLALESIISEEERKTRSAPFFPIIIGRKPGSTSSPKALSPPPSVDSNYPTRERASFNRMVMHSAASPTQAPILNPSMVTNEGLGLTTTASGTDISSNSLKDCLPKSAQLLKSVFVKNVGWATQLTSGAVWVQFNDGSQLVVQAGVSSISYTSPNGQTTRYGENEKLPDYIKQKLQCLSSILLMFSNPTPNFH
Sequence (Q96SW2 whole entry, looked up): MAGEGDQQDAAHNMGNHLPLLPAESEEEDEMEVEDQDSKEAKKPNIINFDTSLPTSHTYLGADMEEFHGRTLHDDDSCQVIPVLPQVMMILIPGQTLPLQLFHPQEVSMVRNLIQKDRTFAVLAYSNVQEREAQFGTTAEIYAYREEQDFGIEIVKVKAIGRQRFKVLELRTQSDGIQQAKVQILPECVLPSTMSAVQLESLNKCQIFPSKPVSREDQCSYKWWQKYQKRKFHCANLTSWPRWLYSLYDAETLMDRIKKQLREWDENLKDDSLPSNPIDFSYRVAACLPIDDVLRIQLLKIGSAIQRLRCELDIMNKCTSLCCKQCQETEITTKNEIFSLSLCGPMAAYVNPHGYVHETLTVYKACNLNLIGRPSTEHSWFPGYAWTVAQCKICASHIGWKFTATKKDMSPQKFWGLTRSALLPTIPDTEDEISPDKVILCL
assaySummary: Protac activity at CRBN/PLK4 in human MCF7 cells at 0.1 uM incubated for 48 hrs by Western blot analysis
Type: cell-based
metric: Activity (%)

Before answering, review these 4 worked examples.
stdin: Need Activity of Cc1cc(Nc2nc(NCc3ccc(F)cc3F)nc3c2cnn3C2CCN(CC3CN(c4ccc5c(c4)C(=O)N(C4CCC(=O)NC4=O)C5=O)C3)CC2)n[nH]1 (configuration not stated) , thanks.
stdout: 2.33

stdin: Need Activity of Cc1cc(Nc2nc(NCc3ccc(F)cc3F)nc3c2cnn3C2CCN(C(=O)CCCCCCCCCOc3ccc4c(c3)C(=O)N(C3CCC(=O)NC3=O)C4=O)CC2)n[nH]1 (configuration not stated) , thanks.
stdout: 2.81

stdin: Need Activity of Cc1cc(Nc2nc(NCc3ccc(F)cc3F)nc3c2cnn3C2CCN(C(=O)CC3CC4(C3)CN(c3ccc5c(c3)C(=O)N(C3CCC(=O)NC3=O)C5=O)C4)CC2)n[nH]1 (configuration not stated) , thanks.
stdout: 1.84

stdin: Need Activity of Cc1cc(Nc2nc(NCc3ccc(F)cc3F)nc3c2cnn3C2CCN(C(=O)CCCOc3ccc4c(c3)C(=O)N(C3CCC(=O)NC3=O)C4=O)CC2)n[nH]1 (configuration not stated) , thanks.
stdout: 44.6

I: Cc1cc(Nc2nc(NCc3ccc(F)cc3F)nc3c2cnn3C2CCN(C(=O)CCCCCOc3ccc4c(c3)C(=O)N(C3CCC(=O)NC3=O)C4=O)CC2)n[nH]1 (configuration not stated)
II: Cc1cc(Nc2nc(NCc3ccc(F)cc3F)nc3c2cnn3C2CCN(CC3CCN(c4ccc5c(c4)C(=O)N(C4CCC(=O)NC4=O)C5=O)CC3)CC2)n[nH]1 (configuration not stated)
III: Cc1cc(Nc2nc(NCc3ccc(F)cc3F)nc3c2cnn3C2CCN(C(=O)CCOCCOc3ccc4c(c3)C(=O)N(C3CCC(=O)NC3=O)C4=O)CC2)n[nH]1 (configuration not stated)
stdin: Put the items in sequence by Activity, from largest down. Reply with the labels, ordered as the question asks.
stdout: I, III, II
